Each item that follows carries a reported protein stability index.
- Test system: Saccharomyces cerevisiae;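 note: PSI is a weighted mean of sequencing reads over stability bins, variants kept only with over 10 reads, mCherry proximal and sfGFP distal, peptide attached via GGGS linker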
- assay: protein stability index of tFT-peptide fusion (C-terminal peptide) (PSI (0-1 scale)); higher = more stable (slower turnover)
- condition.notes: genetic background: wild type; temperature: 30 C
readout.type: protein stability index

sequence.input: ECESGKFSLGGT
readout.type: protein stability index
test.result: 0.68

sequence.input: PPLPPPSVPPPC
readout.type: protein stability index
test.result: 0.716

sequence.input: KKTKKKQQGKIQ
readout.type: protein stability index
test.result: 0.702

sequence.input: PPLRPRCSPAPR
readout.type: protein stability index
test.result: 0.706

sequence.input: VVLLGAVGLVER
readout.type: protein stability index
test.result: 0.679

sequence.input: FIIIKTKKMTMK
readout.type: protein stability index
test.result: 0.7

sequence.input: RLSMCLDDPPRL
readout.type: protein stability index
test.result: 0.717

sequence.input: WEVLGGFVWASC
readout.type: protein stability index
test.result: 0.683

sequence.input: QIYHIANPKILN
readout.type: protein stability index
test.result: 0.696

sequence.input: RSVSLIAVAPSA
readout.type: protein stability index
test.result: 0.692

sequence.input: EGDGLVWGGQGG
readout.type: protein stability index
test.result: 0.691

sequence.input: RKYKKKKGSKEE
readout.type: protein stability index
test.result: 0.708

sequence.input: RAVFNMSSPSHI
readout.type: protein stability index
test.result: 0.711

sequence.input: GLGVWDLRLGWG
readout.type: protein stability index
test.result: 0.701

sequence.input: VGAPGGVETTKA
readout.type: protein stability index
test.result: 0.685

sequence.input: ARAGQGEWGGGV
readout.type: protein stability index
test.result: 0.701

sequence.input: APRHSSLHPAPS
readout.type: protein stability index
test.result: 0.699

sequence.input: FHYALRLLDFNN
readout.type: protein stability index
test.result: 0.716
